Assay Details: Intraduodenal dosing with and without β-glucuronidase, catheterized rat
Assay type: in vivo
Study Conditions: male, Sprague Dawley, rat, plasma, other: intraduodenal, 10 mg/kg, rats N=6; Compound 1 10 mg/kg intraduodenal without enzyme; 3 hrs

Molecule: COc1cc2c(cc1OC)-c1n[nH]c(Nc3cccc(F)c3)c1C2
concentration at 3 h (ng/mL): 1.5
//
Molecule: COc1cc2c(cc1OC)-c1n[nH]c(N(c3cccc(F)c3)[C@H]3O[C@@H](C(=O)O)[C@H](O)[C@@H](O)[C@@H]3O)c1C2
concentration at 3 h (ng/mL): 66.6
//
Molecule: COc1cc2c(cc1OC)-c1nn(C3OC(C(=O)O)C(O)C(O)C3O)c(Nc3cccc(F)c3)c1C2 (stereo in doubt)
concentration at 3 h (ng/mL): 7.1

// provenance: patent US20080031866A1
